# test-description: Resistance to Poly (ADP-Ribose) Polymerase inhibitor: Gene Identification via Genome-wide siRNA Screen
# settings: mouse BRCA2 R2336H ES cells, olaparib, CellTiter-Glo viability
# Experimental: The role of Poly (ADP-Ribose) Polymerase (PARP) proteins in DNA repair has been elegantly utilized for the synthetic lethality-based treatment of BRCA-deficient tumors by PARP inhibitors. […] Transfections were performed in 384 well plates (Corning 3707). […] Cell viability was measured using CellTiter Glo (Promega). […] PARPi (olaparib, AZD2281) was added 48 h post-transfection (500 nM) and viability (CellTiter Glo, Promega) was assayed 72 h later on a PerkinElmer Envision 2104 Multilabel plate reader. […]
Hit rate of the full screen: of about 52,000 sequences, about 210 (0.4%) were called active.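 Rule for the calls: active = gene whose silencing raises cell survival under the drug, median off-target-corrected z-score across its silencing RNAs 2 or more; inactive = the rest.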 The full list was thinned out, with actives kept by preference.
Allowed answers: T for active, F for inactive

>>> classification("GGGAUCAUUAAACUUUUCCTT against Taf11")
"F"
>>> classification("GGCAGUAGUGUUAACGGUGTT against Chrnb2")
"T"
>>> classification("CCUCGUUCAUACGACAGAATT against BC062951")
"F"
>>> classification("GGAAGAGAGAUGGAAAAAATT against Gcnt1")
"F"
>>> classification("GGGCCUAUAUAACAUCUUGTT against Usp11")
"T"
>>> classification("GGCCAAAUCAUGGAUGCAGTT against Comt")
"F"
>>> classification("GCUUGUGAAAAAUUAUGAGTT against Ipo7")
"F"
>>> classification("CACGGGCAUCCUUGACUCCTT against Mbp")
"F"

*Q* Give the logged outcome of this assay for the following sequence: GCUUUAGAUACGUGAUUAGTT against 5830417C01Rik
*A* F

*Q* Give the logged outcome of this assay for the following sequence: CGUCUCAACAGAGUUGGAGTT against Hrmt1l1
*A* F

*Q* Give the logged outcome of this assay for the following sequence: CCAUCAAGAGGUAUAAUCUTT against A930017E24Rik
*A* F

*Q* Give the logged outcome of this assay for the following sequence: GCGGAUUUAGUGGCUGGCUTT against Opn5
*A* F

*Q* Give the logged outcome of this assay for the following sequence: UCUGGAGUCUUAUCAAGGATT against 2210020M01Rik
*A* F

*Q* Give the logged outcome of this assay for the following sequence: GGCAAGAAUCAAGGAGAGATT against Nek1
*A* F

*Q* Give the logged outcome of this assay for the following sequence: GGUCUACGAGUUUAUUGCUTT against Phc1
*A* F

*Q* Give the logged outcome of this assay for the following sequence: GCUCAAACAGAUACACGGATT against Ap2a2
*A* F

*Q* Give the logged outcome of this assay for the following sequence: GCUACAAAGCGAUGUUUCATT against Pola2
*A* F

*Q* Give the logged outcome of this assay for the following sequence: GGACUGAGGAAGAAUUUAATT against Grp58
*A* F

*Q* Give the logged outcome of this assay for the following sequence: GGUUCUUUAAUAGAACAUGTT against Tyrp1
*A* F

*Q* Give the logged outcome of this assay for the following sequence: GCCUUUGUAGGUUCAAGUGTT against 2310001H12Rik
*A* F

*Q* Give the logged outcome of this assay for the following sequence: GGCAAAAAAAACUGCUAUATT against Gpr128
*A* T

*Q* Give the logged outcome of this assay for the following sequence: GGAUUACGGUCACUGCCAUTT against Gabrr2
*A* F

*Q* Give the logged outcome of this assay for the following sequence: GGAAGACAUGAAAUUGUUCTT against Psma3
*A* F

*Q* Give the logged outcome of this assay for the following sequence: GGAGCUCAGAUGCAAUGAGTT against Zfp393
*A* F

*Q* Give the logged outcome of this assay for the following sequence: GGCCUUGGGAAGGAAAGAGTT against Mospd1
*A* F

* * *

I'd appreciate it if you could supply z-score values for the items below.
# test-description: Resistance to Poly (ADP-Ribose) Polymerase inhibitor: Gene Identification via Genome-wide siRNA Screen
# settings: mouse BRCA2 R2336H ES cells, olaparib, CellTiter-Glo viability; active compounds read high
# Procedure: The role of Poly (ADP-Ribose) Polymerase (PARP) proteins in DNA repair has been elegantly utilized for the synthetic lethality-based treatment of BRCA-deficient tumors by PARP inhibitors. […] Transfections were performed in 384 well plates (Corning 3707). […] Cell viability was measured using CellTiter Glo (Promega). […] PARPi (olaparib, AZD2281) was added 48 h post-transfection (500 nM) and viability (CellTiter Glo, Promega) was assayed 72 h later on a PerkinElmer Envision 2104 Multilabel plate reader. […]
About 210 (0.4%) of roughly 52,000 sequences were called active. Shown is part of a subset that was picked to be rich in actives.

Recorded results for 4 sequences are shown here.
>>> endpoint_value("CCAUUUAACCGUAAGACGUTT against Krtap8-2")
"0.535 (inactive)"
>>> endpoint_value("GCGAGUCGCUCAUAGUGAATT against AW822216")
"0.476 (inactive)"
>>> endpoint_value("GGCUUUUUCCUCUACCCACTT against Trhde")
"0.762 (inactive)"
>>> endpoint_value("GGAAAACAGCUUUGAUUGGTT against E130009J12Rik")
"1.42 (inactive)"

Please give z-score for each item listed below.
1. GGAGCUCAACAAGUUGCUUTT against Hist1h2aa
2. CCAGUUGGAAAUAUGACGATT against 2510002A14Rik

*A*
1: -0.0931 (inactive); 2: 0.99 (inactive)

* * *

I'd appreciate it if you could supply z-score values for the items below.
# test-description: Resistance to Poly (ADP-Ribose) Polymerase inhibitor: Gene Identification via Genome-wide siRNA Screen
# settings: mouse BRCA2 R2336H ES cells, olaparib, CellTiter-Glo viability; active compounds read high
The campaign covered roughly 52,000 sequences. About 210 (0.4%) were called active. Shown is part of a subset that was picked to be rich in actives.
Give bare numbers.

Recorded results for 10 sequences are shown here.
>>> endpoint_value("GGUUUGAAAUCAGCAUGAUTT against A530065I17Rik")
-0.647
>>> endpoint_value("GCAGAUAUUCUCUGUGCAGTT against Ccnf")
2.22
>>> endpoint_value("GCCUGCUCUUGAAGGAUAATT against Ptpn9")
1.13
>>> endpoint_value("GGUCAUAGGUACGUAUCCGTT against 6430529G09Rik")
-0.0313
>>> endpoint_value("GCCUCAGAAAAACAUCUAUTT against BC008103")
2.16
>>> endpoint_value("GGAGACAAAUAUGAUGUAUTT against Hook1")
-1.94
>>> endpoint_value("CGGACUAAGUUUCAAAUCGTT against Pcdha2")
-0.594
>>> endpoint_value("GGAUGGUCAUAAGGAUCAATT against Gpr128")
2.66
>>> endpoint_value("GGGAAAUGUGUGUUAUCUGTT against Rnf126")
1.17
>>> endpoint_value("GCAUUGGCUGUACUACUAUTT against Psg18")
-0.196

Please give z-score for each item listed below.
1. CCCAUUAUUGGCACUACAATT against LOC434285
2. GCGGCAUAUGCCUACUCUUTT against Slc6a12
3. GCAAGUGGUAAUGGUGACCTT against Tex15
4. GGAGGUCCAGCUGUUCAUGTT against Kcnn4
5. GCAGAGGAUAUAAAACAAGTT against Pde2a
6. GGAACUGAUAACCAGCCAGTT against 1700029B21Rik
7. GGAACGAUCGAAACAAGAATT against Rarg
8. GGAUGAUUUCCAGAGAGUATT against Rdh5

*A*
-0.98
-1.46
-0.249
2.89
0.234
-0.44
3.59
-1.33

Please give z-score for each item listed below.
1. GCCUCUUUGAUAGCAAAAGTT against Cct6a
2. GGAUUCGAUUCUUCCAAAATT against Peli2

*A*
1: 0.0125; 2: -1.02

Please give z-score for each item listed below.
1. GGCACACGGUUUUCAUUAATT against Pcdhb5
2. GCACGAAGAACCACACAAGTT against 5830484A20Rik
3. CGUUUUCCACAAAGCAAAATT against Olfr1465
4. GGCGAAUUAUUGAAAACGUTT against Actr8
5. GCUUUUGAUCCACAGAUUUTT against Prss33

*A*
1: -0.354; 2: -0.63; 3: 0.0226; 4: 3.41; 5: 2.34

* * *

# test-description: Resistance to Poly (ADP-Ribose) Polymerase inhibitor: Gene Identification via Genome-wide siRNA Screen
# settings: mouse BRCA2 R2336H ES cells, olaparib, CellTiter-Glo viability
The campaign covered roughly 52,000 sequences. About 210 (0.4%) were called active.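 The calls were made as follows: active = gene whose silencing raises cell survival under the drug, median off-target-corrected z-score across its silencing RNAs 2 or more; inactive = the rest.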 This is one part of a sample in which actives are shown more often than they occur.
Allowed answers: 1 (active), 0 (inactive)

// below: answered sequences
>>> classification("GGACUAUCAGGACCUUUUUTT against Dnajb3")
0
>>> classification("GGACCAACAUAACCUCUACTT against BC037432")
0

*Q* Give the logged outcome of this assay for the following sequence: GGACACUUAGCAGCAAAGGTT against Lsm7
*A* 0

*Q* Give the logged outcome of this assay for the following sequence: GCCUCAUUGAAAGGAUCCATT against GnT-IX
*A* 0

*Q* Give the logged outcome of this assay for the following sequence: GAUCUUAUAUGUUGGUGGUTT against V1rc2
*A* 0

*Q* Give the logged outcome of this assay for the following sequence: CGCAGACAGUUUGAGGCUGTT against 1700034P14Rik
*A* 0

*Q* Give the logged outcome of this assay for the following sequence: GGCUUAUGUCCCAAAGCUATT against Nexn
*A* 0

*Q* Give the logged outcome of this assay for the following sequence: GCAGCUCCAAAUCCUGUUCTT against Asb16
*A* 1

*Q* Give the logged outcome of this assay for the following sequence: CCACUUUCGCUUUACCAAUTT against C330011M18Rik
*A* 0

*Q* Give the logged outcome of this assay for the following sequence: CGUGUAAAAGCCGGAUUGATT against 1500015L24Rik
*A* 0

*Q* Give the logged outcome of this assay for the following sequence: GGAAGAAAACAUGGAAGAATT against Usp47
*A* 1

*Q* Give the logged outcome of this assay for the following sequence: GGUUAAAGAAGCCAUGAAATT against Olfr480
*A* 0

*Q* Give the logged outcome of this assay for the following sequence: GCUGAGAGAAAGGUUCACATT against Tube1
*A* 0

*Q* Give the logged outcome of this assay for the following sequence: GGACAAGAACUACAUUGAGTT against Eefsec
*A* 0

*Q* Give the logged outcome of this assay for the following sequence: GGUCCACGGUUACUAAAAATT against Klrd1
*A* 1

*Q* Give the logged outcome of this assay for the following sequence: GGAACAUCAGGUGCAUGUGTT against Pkd1
*A* 0

*Q* Give the logged outcome of this assay for the following sequence: GGCCUUCAAUCACCUAGAGTT against Pde6g
*A* 1

*Q* Give the logged outcome of this assay for the following sequence: CCCAGGACUCAUGAUUACATT against Tas2r134
*A* 0

*Q* Give the logged outcome of this assay for the following sequence: GCAUUUUGACCCAAGUGUUTT against Foxq1
*A* 0

*Q* Give the logged outcome of this assay for the following sequence: GGCUGAAGCAGUCUGUUGCTT against Rpp14
*A* 0

*Q* Give the logged outcome of this assay for the following sequence: GGCAAUUGUUUUUAGAGAGTT against 2610510J17Rik
*A* 0

*Q* Give the logged outcome of this assay for the following sequence: GCUGACCCAGCUAUGUACUTT against 4930519N13Rik
*A* 0

*Q* Give the logged outcome of this assay for the following sequence: GCCUAAAAAAUCUCUGUGATT against Zswim3
*A* 0

*Q* Give the logged outcome of this assay for the following sequence: GCAUGCAUGAUGGAUCUUCTT against Gabrb1
*A* 0

*Q* Give the logged outcome of this assay for the following sequence: GGCUUGGAAGGAUUAGAAGTT against 4930418G15Rik
*A* 0

*Q* Give the logged outcome of this assay for the following sequence: GGGUAGACAGAAAGCCUUUTT against Olfr111
*A* 0

*Q* Give the logged outcome of this assay for the following sequence: GCUGUCCACUGCUUAAAUCTT against Isyna1
*A* 0

*Q* Give the logged outcome of this assay for the following sequence: GGACCAGGUAUUCAUGAUCTT against Sema3c
*A* 0
